System: Mycobacterium tuberculosis Erdman (pMV306hsp+LuxG13)
Assay: log2 fractional inhibitory concentration at 50% inhibition (log2 FIC); higher = more antagonistic
Conditions: growth medium: butyrate 5 mM; time point: terminal time point
measure: log2 fractional inhibitory concentration
Just the number, please, no unit attached.

Examples with answers:
| compound | observed-result |
| --- | --- |
| COc1nc2ccc(Br)cc2cc1[C@@H](c1ccccc1)[C@@](O)(CCN(C)C)c1cccc2ccccc12 [bedaquiline] + CC(C)=CCC/C(C)=C/CNCCNC1C2CC3CC(C2)CC1C3 [SQ109] | 0.817 |
| CC[C@@H](CO)NCCN[C@@H](CC)CO [ethambutol] + CC(C)=CCC/C(C)=C/CNCCNC1C2CC3CC(C2)CC1C3 [SQ109] | 0.497 |
| CO[C@H]1/C=C/O[C@@]2(C)Oc3c(C)c(O)c4c(O)c(c(/C=N/N5CCN(C6CCCC6)CC5)c(O)c4c3C2=O)NC(=O)/C(C)=C\C=C\[C@H](C)[C@H](O)[C@@H](C)[C@@H](O)[C@@H](C)[C@H](OC(C)=O)[C@@H]1C [rifapentine] + CC(=O)NC[C@H]1CN(c2ccc(N3CCSCC3)c(F)c2)C(=O)O1 | 0.16 |
| NNC(=O)c1ccncc1 [isoniazid] + CC(C)=CCC/C(C)=C/CNCCNC1C2CC3CC(C2)CC1C3 [SQ109] | 0.29 |

IN: Look up log2 fractional inhibitory concentration for this compound: CC(C)/N=c1\cc2n(-c3ccc(Cl)cc3)c3ccccc3nc-2cc1Nc1ccc(Cl)cc1 [clofazimine] + CC(C)=CCC/C(C)=C/CNCCNC1C2CC3CC(C2)CC1C3 [SQ109]
OUT: -0.367

* * *

Test system: Mycobacterium tuberculosis Erdman (pMV306hsp+LuxG13)
Test: GRinf, normalised growth-rate inhibition at infinite dose (GR value (unitless, negative = killing)); higher = less potent
Details: growth medium: cholesterol 0.05 mM; time point: constant time point
measure: GRinf
Just the number, please, no unit attached.

Examples with answers:
| compound | GRinf |
| --- | --- |
| NC(=O)c1cnccn1 [pyrazinamide] + CC(C)=CCC/C(C)=C/CNCCNC1C2CC3CC(C2)CC1C3 [SQ109] | -0.787 |
| NC(=O)c1cnccn1 [pyrazinamide] + CC(=O)NC[C@H]1CN(c2ccc(N3CCSCC3)c(F)c2)C(=O)O1 [sutezolid] | -1 |
| COc1nc2ccc(Br)cc2cc1[C@@H](c1ccccc1)[C@@](O)(CCN(C)C)c1cccc2ccccc12 [bedaquiline] + CC(=O)NC[C@H]1CN(c2ccc(N3CCSCC3)c(F)c2)C(=O)O1 [sutezolid] | -0.927 |

IN: Quick check: GRinf on Mycobacterium tuberculosis Erdman (pMV306hsp+LuxG13), item CC(C)/N=c1\cc2n(-c3ccc(Cl)cc3)c3ccccc3nc-2cc1Nc1ccc(Cl)cc1 [clofazimine] + CC(C)=CCC/C(C)=C/CNCCNC1C2CC3CC(C2)CC1C3 [SQ109] ?
OUT: -0.558

IN: Quick check: GRinf on Mycobacterium tuberculosis Erdman (pMV306hsp+LuxG13), item NNC(=O)c1ccncc1 [isoniazid] + CC(=O)NC[C@H]1CN(c2ccc(N3CCSCC3)c(F)c2)C(=O)O1 [sutezolid] ?
OUT: -0.536

IN: Quick check: GRinf on Mycobacterium tuberculosis Erdman (pMV306hsp+LuxG13), item O=[N+]([O-])c1cn2c(n1)OC[C@@H](OCc1ccc(OC(F)(F)F)cc1)C2 [pretomanid] + CC(=O)NC[C@H]1CN(c2ccc(N3CCSCC3)c(F)c2)C(=O)O1 ?
OUT: -1
